From: PubChem BioAssay (NCI)

Test system: RXF 393 renal
Assay: NCI tumour cell line growth inhibition, 48 h
Metric Name: GI50

{"Compound": "O=C1c2cccnc2-c2nc(-c3ccncc3)cc3c2c1nc1ccccc13", "Metric Name": "GI50", "Observed Measurement": "15600 nM"}
{"Compound": "CCCCCCCCCCCCCCCCCCNC(=O)[C@H]1CSC(c2cccs2)N1 (stereo partly specified)", "Metric Name": "GI50", "Observed Measurement": "973 nM"}
{"Compound": "CCCCCCCCCCCC[n+]1ccccc1 (tested in a mixture with another compound)", "Metric Name": "GI50", "Observed Measurement": "682 nM"}
{"Compound": "CC(=O)N[C@H](C(=O)N[C@@H](CCCNC(=N)N)C(=O)N[C@@H](CCCCN)C(=O)N[C@@H](CCCNC(=N)N)C(=O)N[C@]1(C)CCCCCC/C=C\\CCC[C@@](C)(C(=O)N[C@@H](CCCNC(=N)N)C(=O)N[C@@H](CCC(=O)O)C(=O)N[C@@H](CC(C)C)C(=O)N[C@H](C(=O)N[C@@H](CCC(=O)O)C(N)=O)C(C)C)NC(=O)[C@H](CCC(N)=O)NC(=O)[C@H](CC(C)C)NC(=O)[C@H](CC(C)C)NC(=O)[C@H](CCCNC(=N)N)NC(=O)[C@H](CCCNC(=N)N)NC(=O)[C@H](CC(C)C)NC1=O)C(C)C", "Metric Name": "GI50", "Observed Measurement": "1340 nM"}
{"Compound": "Cn1c2ccccc2c2c(=O)c3ccccc3[nH]c21", "Metric Name": "GI50", "Observed Measurement": "54000 nM"}
{"Compound": "OB1OCc2cc(/C=C/c3cccc(C(F)(F)F)c3)ccc21", "Metric Name": "GI50", "Observed Measurement": "2230 nM"}

---

System: SNB-75 CNS
Experiment: NCI tumour cell line growth inhibition, 48 h; in the data active = GI50 below about 0.43 µM; inactive = the rest
Possible outcomes: T = active, F = inactive

{"Compound Structure": "Cc1ccc2nc3c(Cl)c(C)c(=O)cc-3sc2c1", "Label Value": "F"}
{"Compound Structure": "O=C1C(Cl)=C(Nc2ccccc2)C(=O)c2ccccc21", "Label Value": "F"}
{"Compound Structure": "CCN(CC)CCNC(=O)c1cn2ncnc(Oc3ccc(NC(=O)Nc4ccc(Cl)c(C(F)(F)F)c4)c(F)c3)c2c1C", "Label Value": "T"}
{"Compound Structure": "COc1ccc(/C=C2/CCc3cc4ccc(OC)cc4[o+]c32)c(O)c1", "Label Value": "F"}
{"Compound Structure": "CC(=O)N[C@H](C(=O)N[C@@H](CCCNC(=N)N)C(=O)N[C@@H](CCCCN)C(=O)N[C@@H](CCCNC(=N)N)C(=O)N[C@]1(C)CCCCCC/C=C\\CCC[C@@](C)(C(=O)N[C@@H](CCCNC(=N)N)C(=O)N[C@@H](CCC(=O)O)C(=O)N[C@@H](CC(C)C)C(=O)N[C@H](C(=O)N[C@@H](CCC(=O)O)C(N)=O)C(C)C)NC(=O)[C@H](CCC(N)=O)NC(=O)[C@H](CC(C)C)NC(=O)[C@H](CC(C)C)NC(=O)[C@H](CCCNC(=N)N)NC(=O)[C@H](CCCNC(=N)N)NC(=O)[C@H](CC(C)C)NC1=O)C(C)C", "Label Value": "F"}
{"Compound Structure": "O=S(=O)(CCOCc1ccc(-c2ccc3ncnc(Nc4ccc(OCc5cccc(F)c5)c(Cl)c4)c3c2)o1)c1ccccc1", "Label Value": "F"}
{"Compound Structure": "Cn1cc(-c2csc(-c3cn(C)c4ccccc34)n2)c2cnccc21", "Label Value": "F"}
{"Compound Structure": "COCCOCCOCc1n(Cc2ccc3ccccc3n2)c2ccccc2[n+]1Cc1ccc2ccccc2c1", "Label Value": "T"}
{"Compound Structure": "O=C1c2cccnc2-c2nc(-c3ccncc3)cc3c2c1nc1ccccc13", "Label Value": "F"}

---

Tested on: HL-60(TB) leukemia
Test: NCI tumour cell line growth inhibition, 48 h

{"Compound": "CC1(Cc2ccccc2)NC(=S)NC1=O (stereo not given)", "Censoring Sign": ">", "TGI / µM": 100}
{"Compound": "CCOC(=O)c1c(-c2ccc(OC)cc2)c(C#N)c(=S)n(C2OC(COC(C)=O)C(OC(C)=O)C(OC(C)=O)C2OC(C)=O)c1C (stereo not given)", "Censoring Sign": ">", "TGI / µM": 100}
{"Compound": "CCCCCCCCCCCCCCCCCCNC(=O)[C@H]1CSC(c2cccs2)N1 (stereo not given in full)", "Censoring Sign": "=", "TGI / µM": 2.06}
{"Compound": "BrC/C=C/C[P+](c1ccccc1)(c1ccccc1)c1ccccc1", "Censoring Sign": "=", "TGI / µM": 39.2}
{"Compound": "CC(C)c1ccccc1NC(=O)/C(Cl)=C1/Sc2ccccc2NC1=O", "Censoring Sign": "=", "TGI / µM": 52.6}

---

System: CCRF-CEM leukemia
Experiment: NCI tumour cell line growth inhibition, 48 h

{"Compound": "CC1(C)OC2COC3(CNO)OC(C)(C)OC3C2O1 (stereo not given)", "Measurement Target": "CCRF-CEM leukemia", "TGI": "> 100 µM"}
{"Compound": "CC1CC[C@@]2(OC1)OC1C[C@H]3[C@@H]4CC[C@H]5CC(OC6OC(CO)C(OC7OC(CO)C(O)C(O)C7OC7OC(CO)C(O)C(O)C7O)C(O)C6O)CCC5(C)[C@H]4CCC3(C)C1[C@@H]2C (stereo not given in full)", "Measurement Target": "CCRF-CEM leukemia", "TGI": "4.1 µM"}
{"Compound": "COc1cc(C2CC(C)(Nc3ccccc3)Oc3cc4c(cc32)OCO4)cc(OC)c1OC (stereo not given)", "Measurement Target": "CCRF-CEM leukemia", "TGI": "3.72 µM"}
{"Compound": "O=C(/C=C/c1ccsc1)c1ccsc1", "Measurement Target": "CCRF-CEM leukemia", "TGI": "45.2 µM"}
{"Compound": "O=C1C(SCCO)=C(SCCO)C(=O)c2ccccc21", "Measurement Target": "CCRF-CEM leukemia", "TGI": "4.8 µM"}
{"Compound": "c1ccc2c(c1)NC(C1OC3CCCN3C1C1Nc3ccccc3S1)S2 (stereo not given)", "Measurement Target": "CCRF-CEM leukemia", "TGI": "> 100 µM"}
{"Compound": "N#CCCN(CCC#N)c1ccc(/C=C2\\N=C(c3ccccc3)N(c3ccc(Cl)cc3)C2=O)cc1", "Measurement Target": "CCRF-CEM leukemia", "TGI": "> 100 µM"}
{"Compound": "CNC(=O)c1cc2c(Oc3ccc(NC(=O)C4(C(=O)Nc5ccc(F)cc5)CC4)cc3)ccnc2cc1OC", "Measurement Target": "CCRF-CEM leukemia", "TGI": "> 100 µM"}
{"Compound": "O=c1oc(-c2ccc(O)c(O)c2)cc2cccc(O)c12", "Measurement Target": "CCRF-CEM leukemia", "TGI": "> 46.1 µM"}
{"Compound": "CC(=O)N/N=C1\\NC(=O)C[C@H]2[C@@H]3CC=C4C[C@@H](OC(C)=O)CC[C@]4(C)[C@H]3CC[C@]12C", "Measurement Target": "CCRF-CEM leukemia", "TGI": "> 100 µM"}
{"Compound": "CCOC(=O)NC(=S)NN(C)C1=NCC(C)(C)S1", "Measurement Target": "CCRF-CEM leukemia", "TGI": "> 100 µM"}
{"Compound": "Cn1c([N+](=O)[O-])cnc1/C=C1\\Oc2cc(Cl)ccc2C1=O", "Measurement Target": "CCRF-CEM leukemia", "TGI": "0.754 µM"}
{"Compound": "CC(=O)O[C@]12CCCCCC1C1(O)C(O)CCC[C@H]12 (stereo not given in full)", "Measurement Target": "CCRF-CEM leukemia", "TGI": "> 100 µM"}
{"Compound": "CC(C)c1ccccc1NC(=O)/C(Cl)=C1/Sc2ccccc2NC1=O", "Measurement Target": "CCRF-CEM leukemia", "TGI": "82.8 µM"}
{"Compound": "COc1ccc(C2(CC(C)O)SCCCS2)cc1 (stereo not given)", "Measurement Target": "CCRF-CEM leukemia", "TGI": "> 100 µM"}
{"Compound": "Cc1ccc(S(=O)(=O)N/N=C(\\c2nc3ccc([N+](=O)[O-])cc3[nH]c2=O)C(O)c2ccccc2Cl)cc1 (stereo not given)", "Measurement Target": "CCRF-CEM leukemia", "TGI": "> 100 µM"}
{"Compound": "CC(C(=O)n1nnc2ccccc21)N(c1ccccc1)c1ccccc1 (stereo not given)", "Measurement Target": "CCRF-CEM leukemia", "TGI": "> 100 µM"}
{"Compound": "COc1cc(NS(C)(=O)=O)ccc1N1Cc2cnc3ccc4[nH]c(C)cc1c4c23", "Measurement Target": "CCRF-CEM leukemia", "TGI": "> 100 µM"}
{"Compound": "C=C(CN1CCc2ccccc2C1)c1ccc(C(=O)Nc2ccccc2N)cc1", "Measurement Target": "CCRF-CEM leukemia", "TGI": "12.7 µM"}
{"Compound": "CCCCCCCCCCCCCC(=O)OCC1OC(=O)CC1O (stereo not given)", "Measurement Target": "CCRF-CEM leukemia", "TGI": "> 100 µM"}
{"Compound": "COCOc1ccc(Cn2c(=O)n(C)c(=O)c3c2ncn3C)cc1[N+](=O)[O-]", "Measurement Target": "CCRF-CEM leukemia", "TGI": "> 100 µM"}
{"Compound": "Brc1cccc(Nc2nc(-c3cccs3)nc3ccc(Br)cc23)c1", "Measurement Target": "CCRF-CEM leukemia", "TGI": "> 100 µM"}
{"Compound": "Cc1cc(Nc2nc(SCc3ccc(C(=O)Nc4ccc(F)cc4N)cc3)nn3cccc23)n[nH]1", "Measurement Target": "CCRF-CEM leukemia", "TGI": "> 100 µM"}
{"Compound": "C[n+]1c2ccccc2cc2c(CNC(CCCN=C(N)N)C(=O)O)cccc21 (stereo not given)", "Measurement Target": "CCRF-CEM leukemia", "TGI": "0.555 µM"}
{"Compound": "O=c1c(Cl)c(Cl)cnn1CCc1ccncc1", "Measurement Target": "CCRF-CEM leukemia", "TGI": "88.8 µM"}
{"Compound": "CC(=O)N(C(C)=O)C1=C2c3ccccc3N(S(=O)(=O)c3ccccc3)C2n2c(=O)n(-c3ccccc3)c(=O)n2C1 (stereo not given)", "Measurement Target": "CCRF-CEM leukemia", "TGI": "> 100 µM"}
{"Compound": "Cc1ccc2c(c1)Sc1ccc(N=NN(C)C)cc1N2C", "Measurement Target": "CCRF-CEM leukemia", "TGI": "> 100 µM"}
{"Compound": "Cc1ccc2nc3c(Cl)c(C)c(=O)cc-3sc2c1", "Measurement Target": "CCRF-CEM leukemia", "TGI": "> 100 µM"}
{"Compound": "CC1(c2ccccc2)CC(c2ccccc2)=NO1 (stereo not given)", "Measurement Target": "CCRF-CEM leukemia", "TGI": "> 100 µM"}
{"Compound": "CC(=O)NNc1nc(C)c(C(=O)NNC(=O)C(=O)Nc2nc3ccc([N+](=O)[O-])cc3s2)s1", "Measurement Target": "CCRF-CEM leukemia", "TGI": "56.5 µM"}
{"Compound": "CCOC(=N)n1c(=O)n(C2=NCCN2)c2ccccc21", "Measurement Target": "CCRF-CEM leukemia", "TGI": "> 100 µM"}
{"Compound": "O=C1/C(=C\\c2cccc(Oc3ccccc3)c2)S(=O)(=O)C(c2ccccc2)N1Cc1ccccc1 (stereo not given)", "Measurement Target": "CCRF-CEM leukemia", "TGI": "> 100 µM"}
{"Compound": "COC1OC(C)C(OCc2ccccc2)C(OS(=O)(=O)c2ccc(C)cc2)C1OS(=O)(=O)c1ccc(C)cc1 (stereo not given)", "Measurement Target": "CCRF-CEM leukemia", "TGI": "> 100 µM"}
{"Compound": "Nc1c(-c2cccc3ccccc23)c2ccc([N+](=O)[O-])cc2c(=O)n1-c1nc2ccccc2s1", "Measurement Target": "CCRF-CEM leukemia", "TGI": "> 100 µM"}
{"Compound": "BrC/C=C/C[P+](c1ccccc1)(c1ccccc1)c1ccccc1", "Measurement Target": "CCRF-CEM leukemia", "TGI": "> 100 µM"}
{"Compound": "CC[C@H]1CN2CCc3cc(OC)c(OC)cc3[C@@H]2C[C@@H]1C[C@H]1NCCc2cc(OC)c(OC)cc21", "Measurement Target": "CCRF-CEM leukemia", "TGI": "0.0656 µM"}
{"Compound": "CCN(CC)CCOc1ccc(N2C(=O)c3cc(OC)c(OC)cc3C2=O)cc1", "Measurement Target": "CCRF-CEM leukemia", "TGI": "> 100 µM"}
{"Compound": "c1ccc2sc(SCSc3nc4ccccc4s3)nc2c1", "Measurement Target": "CCRF-CEM leukemia", "TGI": "> 100 µM"}
{"Compound": "C[C@H](Cn1ncnn1)Nc1ncc2cc(Oc3ccc(F)cc3F)c(=O)n(C)c2n1", "Measurement Target": "CCRF-CEM leukemia", "TGI": "> 25 µM"}
{"Compound": "Cc1csc(-c2cn(C)c3c2C(=O)C(N)=CC3=O)n1", "Measurement Target": "CCRF-CEM leukemia", "TGI": "> 100 µM"}
